- Test system: murine gastric organoid diffuse (Cdh1 fl/fl; Apc fl/fl)
- Protocol Summary: IC50 (viability, PrestoBlue) (log10 nM)
- Condition Details: exposure time: 72 h
Counter-ions that a name gives are not always drawn.
For each of the compounds below, state its IC50 (log10 nM).
Answer with a number only.

What does the record list as IC50 (log10 nM) for Clc1ccc(Nc2nnc(Cc3ccncc3)c3ccccc23)cc1 ?
4.26

What does the record list as IC50 (log10 nM) for Cn1cncc1[C@@](N)(c1ccc(Cl)cc1)c1ccc2c(c1)c(-c1cccc(Cl)c1)cc(=O)n2C ?
3.73

What does the record list as IC50 (log10 nM) for O=C1c2c(O)ccc(O)c2C(=O)c2c(NCCNCCO)ccc(NCCNCCO)c21 [Mitoxantrone dihydrochloride] ?
2.41
